- Test system: S. aureus SA113 (ATCC 35556)
- experimental_details: Bacterial growth (A578) and biofilm formation (crystal violet, A595) in 96-well polystyrene microtiter plates
- Format: cell-based, Staphylococcus aureus
- conditions: Staphylococcus aureus, ATCC35556; 6 hours, logistic regression; read-out: IB50 (concentration that inhibited 50% biofilm formation)
measured_endpoint: IC50 (µM)
Value expressed in µM; do not type the unit.

Q) What value of measured IC50 is listed for O=C(OC[C@H]1O[C@@H](OC(=O)c2cc(O)c(O)c(O)c2)[C@H](OC(=O)c2cc(O)c(O)c(O)c2)[C@@H](OC(=O)c2cc(O)c(O)c(O)c2)[C@@H]1OC(=O)c1cc(O)c(O)c(O)c1)c1cc(O)c(O)c(O)c1 ?
A) 3.6

Q) What value of measured IC50 is listed for CC(=O)N[C@@H](CS)C(=O)O [NAC, N-acetylcysteine, reference compound] ?
A) 6380

Q) What value of measured IC50 is listed for O=C1C=CC(=O)N1c1ccccc1 [NPM, N-phenyl maleimide, reference compound] ?
A) 41.9
